Cited source: the supplement of paper PMC13207355

System: E21 (patient-derived glioblastoma stem cells of mesenchymal subtype)
Assay: phenotypic distance (Euclidean, principal components) from DMSO controls (arbitrary units); higher = stronger morphological change
Conditions: 4.1 nM; exposure time: 72 h
Structures can show the parent of a compound that is named as a salt.
phenotypic distance values by entry
experimentalEndpoint: phenotypic distance

[[record]]
compound = "O=C1c2c(O)ccc(O)c2C(=O)c2c(NCCNCCO)ccc(NCCNCCO)c21 [Mitoxantrone]"
experimentalendpoint = "phenotypic distance"
datavalue = 2.94

[[record]]
compound = "COc1cc2c(NC3CCN(C(C)C)CC3)nc(C3CCCCC3)nc2cc1OCCCN1CCCC1 [UNC0638]"
experimentalendpoint = "phenotypic distance"
datavalue = 0.389

[[record]]
compound = "CC(=O)[C@]1(O)Cc2c(O)c3c(c(O)c2[C@@H](O[C@H]2C[C@H](N)[C@H](O)[C@H](C)O2)C1)C(=O)c1ccccc1C3=O [Idarubicin]"
experimentalendpoint = "phenotypic distance"
datavalue = 7.83

[[record]]
compound = "CCc1c2c(nc3ccc(OC(=O)N4CCC(N5CCCCC5)CC4)cc13)-c1cc3c(c(=O)n1C2)COC(=O)[C@]3(O)CC [Irinotecan]"
experimentalendpoint = "phenotypic distance"
datavalue = 0.618

[[record]]
compound = "CCn1cc(C(=O)O)c(=O)c2cc(F)c(N3CCNCC3)nc21 [Enoxacin]"
experimentalendpoint = "phenotypic distance"
datavalue = 0.648

[[record]]
compound = "O=C(CCBr)N1CCN(C(=O)CCBr)CC1 [Pipobroman]"
experimentalendpoint = "phenotypic distance"
datavalue = 0.8

[[record]]
compound = "CC(C)NCC(O)c1cc(O)cc(O)c1 (stereo not drawn) [Metaproterenol sulfate, orciprenaline sulfate]"
experimentalendpoint = "phenotypic distance"
datavalue = 0.506

[[record]]
compound = "CC(C)(C)C1CCN(C(=O)n2ncc(C(O)(c3ccccc3)c3ccccc3)n2)CC1 [ML211]"
experimentalendpoint = "phenotypic distance"
datavalue = 0.863


---

Tested on: E21;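 further: cell Painting imaging in 384-well plates, CellProfiler features reduced to at least 20 principal components, Euclidean distance versus same-plate DMSO vehicle wells (0.1% v/v), median over six images per well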
Assay: phenotypic distance (Euclidean, principal components) from DMSO controls (arbitrary units); higher = stronger morphological change
Conditions: 1000 nM; exposure time: 72 h
Counter-ions that a name gives are not always drawn.
experimentalEndpoint: phenotypic distance

[[record]]
compound = "CN(C)CCN(Cc1ccc(Cl)cc1)c1ccccn1 [Chloropyramine hydrochloride]"
datavalue = 1.38

[[record]]
compound = "NCCCP(=O)(O)O [3-Aminopropylphosphonic acid]"
datavalue = 0.704

[[record]]
compound = "CC(C)(C)CC(C)(C)c1ccc(OCCOCC[N+](C)(C)Cc2ccccc2)cc1 [Benzethonium chloride]"
datavalue = 1.3

[[record]]
compound = "CC(C)C[C@H]1C(=O)N2CCC[C@H]2[C@]2(O)O[C@](NC(=O)[C@@H]3C=C4c5cccc6[nH]c(Br)c(c56)C[C@H]4N(C)C3)(C(C)C)C(=O)N12 [Bromocryptine mesylate]"
datavalue = 0.811

[[record]]
compound = "O=C(/C=C\\n1cnc(-c2cc(C(F)(F)F)cc(C(F)(F)F)c2)n1)NNc1cnccn1 [Selinexor]"
datavalue = 3.96

[[record]]
compound = "O=c1c2ccccc2[se]n1-c1ccccc1 [Ebselen]"
datavalue = 0.556

[[record]]
compound = "CCOC(=O)OC(C)OC1=C(C(=O)Nc2ccccn2)N(C)S(=O)(=O)c2ccccc21 (configuration not stated) [Ampiroxicam]"
datavalue = 0.819


---

Tested on: E34 (patient-derived glioblastoma stem cells of proneural subtype);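 further: nuclei counted by high-content imaging of Hoechst-stained cells in laminin-coated 384-well plates, relative to 0.1% DMSO vehicle wells, with staurosporine as cell-death control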
Assay: surviving fraction (nuclei count normalised to DMSO); higher = more cells surviving (less toxic)
Conditions: 1000 nM; exposure time: 72 h
Counter-ions that a name gives are not always drawn.
surviving fraction values by entry
experimentalEndpoint: surviving fraction

[[record]]
molecule = "Nc1ncnc2c1c(-c1ccc(Oc3ccccc3)cc1)cn2C1CCCC1"
experimentalendpoint = "surviving fraction"
datavalue = 0.958

[[record]]
molecule = "CN(C)CCN(Cc1ccc(Cl)cc1)c1ccccn1 [Chloropyramine hydrochloride]"
experimentalendpoint = "surviving fraction"
datavalue = 1.14

[[record]]
molecule = "COc1cc([C@@H]2c3cc4c(cc3[C@@H](O[C@@H]3O[C@@H]5CO[C@@H](c6cccs6)O[C@H]5[C@H](O)[C@H]3O)[C@H]3COC(=O)[C@H]23)OCO4)cc(OC)c1O [Teniposide]"
experimentalendpoint = "surviving fraction"
datavalue = 0.447

